The entries below are paired with their reported inhibition at 10 µM.
target: human cardiac sodium channel, hNav1.5 (Homo sapiens, UniProt Q14524); construct: host or cells: HEK293; assay: Late INa screening assay (automated whole cell patch clamp, PatchXpress; late current generated with 10 μM Tefluthrin); format: cell-based; details: 10 μM test compound; HEK293 cells expressing hNav1.5; read-out: Late Ina % blk (10 μM test cmpd)
Sequence (Q14524 whole entry): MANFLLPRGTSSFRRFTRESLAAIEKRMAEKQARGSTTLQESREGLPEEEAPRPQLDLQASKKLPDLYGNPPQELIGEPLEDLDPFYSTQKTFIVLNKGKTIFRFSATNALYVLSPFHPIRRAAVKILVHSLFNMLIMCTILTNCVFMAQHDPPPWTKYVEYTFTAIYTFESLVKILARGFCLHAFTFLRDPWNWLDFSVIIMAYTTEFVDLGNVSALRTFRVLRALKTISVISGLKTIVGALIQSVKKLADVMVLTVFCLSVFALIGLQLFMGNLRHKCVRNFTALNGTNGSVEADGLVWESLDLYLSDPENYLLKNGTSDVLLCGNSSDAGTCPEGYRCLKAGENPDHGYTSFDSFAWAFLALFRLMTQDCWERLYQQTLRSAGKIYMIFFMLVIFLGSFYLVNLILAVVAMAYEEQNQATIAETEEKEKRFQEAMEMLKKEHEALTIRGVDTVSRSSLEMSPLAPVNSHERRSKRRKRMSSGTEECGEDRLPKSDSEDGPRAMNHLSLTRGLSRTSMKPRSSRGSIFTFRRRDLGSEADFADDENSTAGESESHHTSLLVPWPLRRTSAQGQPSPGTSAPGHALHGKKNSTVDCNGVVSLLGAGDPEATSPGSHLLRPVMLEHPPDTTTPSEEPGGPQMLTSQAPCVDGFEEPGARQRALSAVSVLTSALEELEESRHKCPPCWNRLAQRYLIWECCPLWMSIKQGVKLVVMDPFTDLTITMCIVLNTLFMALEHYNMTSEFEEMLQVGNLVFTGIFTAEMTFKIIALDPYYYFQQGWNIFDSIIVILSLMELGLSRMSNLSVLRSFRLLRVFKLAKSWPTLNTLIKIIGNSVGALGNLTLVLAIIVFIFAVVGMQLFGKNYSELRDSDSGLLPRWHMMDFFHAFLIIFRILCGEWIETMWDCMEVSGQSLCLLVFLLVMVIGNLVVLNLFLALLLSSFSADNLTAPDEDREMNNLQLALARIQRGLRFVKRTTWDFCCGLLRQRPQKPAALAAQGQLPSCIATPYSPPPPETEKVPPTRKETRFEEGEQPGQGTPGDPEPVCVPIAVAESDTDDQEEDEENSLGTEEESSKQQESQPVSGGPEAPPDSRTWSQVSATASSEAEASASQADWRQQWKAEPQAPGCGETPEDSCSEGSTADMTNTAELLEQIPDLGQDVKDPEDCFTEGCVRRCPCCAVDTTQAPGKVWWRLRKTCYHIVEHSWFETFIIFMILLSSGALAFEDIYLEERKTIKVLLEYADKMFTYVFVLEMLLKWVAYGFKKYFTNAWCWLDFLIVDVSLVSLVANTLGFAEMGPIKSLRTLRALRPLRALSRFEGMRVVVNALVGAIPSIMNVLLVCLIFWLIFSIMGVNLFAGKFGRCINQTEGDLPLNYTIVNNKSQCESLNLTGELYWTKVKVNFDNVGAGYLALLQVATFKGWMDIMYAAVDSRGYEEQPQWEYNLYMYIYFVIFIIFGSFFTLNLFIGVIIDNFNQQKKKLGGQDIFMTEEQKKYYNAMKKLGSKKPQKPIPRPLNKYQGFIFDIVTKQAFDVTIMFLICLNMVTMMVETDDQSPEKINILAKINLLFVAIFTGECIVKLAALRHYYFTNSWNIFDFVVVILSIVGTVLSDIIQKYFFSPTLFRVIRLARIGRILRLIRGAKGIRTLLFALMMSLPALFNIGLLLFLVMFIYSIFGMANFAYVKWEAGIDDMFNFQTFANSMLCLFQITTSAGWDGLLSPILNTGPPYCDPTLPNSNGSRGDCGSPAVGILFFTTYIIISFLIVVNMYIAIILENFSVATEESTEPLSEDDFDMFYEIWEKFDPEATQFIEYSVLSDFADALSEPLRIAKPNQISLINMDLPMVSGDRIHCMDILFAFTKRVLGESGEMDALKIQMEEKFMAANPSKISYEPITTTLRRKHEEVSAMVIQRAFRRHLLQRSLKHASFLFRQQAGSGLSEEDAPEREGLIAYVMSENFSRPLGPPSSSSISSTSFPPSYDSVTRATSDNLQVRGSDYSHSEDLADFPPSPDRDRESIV
QUANTITY: inhibition at 10 µM (%)

>>> result_value("CCOC(=O)c1c(C)nc2ccc(Cl)cc2c1-c1ccccc1")
70.2
>>> result_value("Cc1nc2ccc(Cl)cc2c(-c2ccccc2)c1C(=O)OC(C)(C)C")
61.1
>>> result_value("Cc1nc2ccc(Cl)cc2c(-c2ccccc2)c1C(=O)O[C@@H](C)c1ccccc1")
36.1
>>> result_value("Cc1nc2ccccc2c(C)c1C(=O)OCc1ccccc1Br")
82.4
>>> result_value("Cc1nc2ccc(Cl)cc2c(-c2ccccc2)c1C(C)O (stereo not shown)")
29.8
>>> result_value("CCOC(=O)c1c(C)nc2ccc(Cl)cc2c1-c1ccccc1Cl")
70.2
>>> result_value("Cc1nc2ccc(Cl)cc2c(-c2ccccc2)c1C(=O)NCc1ccc(F)cc1")
26.3

These measurements were taken from patent US8664399B2.
